Data origin: PubChem BioAssay

experiment: yeast TOR pathway RPL19A-GFP modulators, primary screen, cell-based, S. cerevisiae, multiplex flow cytometry (AID 1862);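 further: lower values mimic rapamycin by blocking the RPL19A rise seen in DMSO cells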; conditions: S. cerevisiae RPL19A-GFP strain, flow cytometry fluorescence, 3 h; at 10 µM; stronger effect = lower value
Results filed as inconclusive are left out. Activity calls are given as the source filed them. No stated cut-off is given here; in the data, active means percent of DMSO control GFP below about 86%; inactive means the rest, inconclusive results apart.
Measured percent of DMSO control GFP accompanies every entry in the list below.

What percent of DMSO control GFP value was documented for this compound, `N=C(N)c1ccc(OCCCCCOc2ccc(C(=N)N)cc2)cc1` ?
107% (inactive)

Look at this compound and give its reported percent of DMSO control GFP. COCCc1ccc(OCC(O)CNC(C)C)cc1 (configuration not stated)
103% (inactive)

Others:
Need percent of DMSO control GFP of O=C(Nc1cccc(Cl)c1)N1CCN2C(=O)c3ccccc3C12c1ccccc1 (configuration not stated) , thanks.
100% (inactive)

# input compound: `Cc1nc(C)c(C)nc1C` ; wanted: its percent of DMSO control GFP
101% (inactive)

Give the measured percent of DMSO control GFP of `Clc1ccc(Cn2c(CN3CCCC3)nc3ccccc32)cc1` .
100% (inactive)
